Source listed as the supplement of paper PMC8671470.

- Tested on: ML-2
- measurement_notes: cell viability (% survival relative to DMSO control, bortezomib = 0%); higher = less cytotoxic
- test_settings: 1000 nM; 72 h
reported_property: cell viability (%)
Numbers only, in %.

Sample records with cell viability:
* N#CC(C#N)=NNc1ccc(OC(F)(F)F)cc1 [FCCP] | 82.3
* CN(C)c1cc(NC(=O)CNC(C)(C)C)c(O)c2c1C[C@H]1C[C@H]3[C@H](N(C)C)C(=O)C(C(N)=O)C(=O)[C@@]3(O)C(=O)C1C2=O (some centres not stated) [Tigecycline] | 96.4
* Cc1ccccc1C(C(=O)NC1CCCCC1)N(C(=O)Cn1ccnc1C)c1cccc(F)c1 (configuration not stated) [AGI-5198] | 103
* O=C(C1CC1)N1CC[C@@H](C=C2NNC(=O)N2c2ccc(-c3ccc4occc4c3)cc2)C1 | 97.8
* N/C(=N\CCCC(N)C(=O)O)N[N+](=O)[O-] [L-NNA] | 93.7

Give measured cell viability for every item shown.
1. N#Cc1ccnc(N2C(=O)CC[C@H]2C(=O)N(c2cncc(F)c2)C(C(=O)NC2CC(F)(F)C2)c2ccccc2Cl)c1 (some centres not stated) [Ivosidenib]
2. O=C(O)Cn1nnc(-c2cc(N3CCC(Oc4cc(F)ccc4Br)CC3)no2)n1 [MK-8245]
3. CCCc1cc(-c2nc(-c3ccc(C)cc3)cs2)ccn1 [Fatostatin]

Output line:
[98.1, 105, 111]
